Origin of values: patent US20130315914A1

test-system: soluble histidine-tagged form of human TLR4/MD2 complex (human, UniProt Q9Y6Y9 19-160)
Sequence (Q9Y6Y9 19-160, one chain of several): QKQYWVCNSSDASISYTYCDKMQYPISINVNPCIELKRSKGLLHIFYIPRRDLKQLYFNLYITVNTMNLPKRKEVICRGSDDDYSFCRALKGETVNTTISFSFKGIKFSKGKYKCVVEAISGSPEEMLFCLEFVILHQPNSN
test: competitive ELISA; 15C1 reference EC50 divided by variant EC50
endpoint-name: Relative binding potency increase (fold)
Give the quantity in fold, number only.

Solved cases (4 shown):
Lab note: 1E11.C4 antibody (IgG1) (antibody, V domains shown) VH: QVQLQESGPGLVKPSDTLSLTCAVSGFPIGQGYSWHWIRQPPGKGLEWMGYIHYSGYTDFNPSLKTRITISRDTSKNQFSLKLSSVTAVDTAVYYCARKDSGNYFPYWGQGTLVTVSS VL: EIVLTQSPDFQSVTPKEKVTITCRASQSISDHLHWYQQKPDQSPKLLIKYASHAISGVPSRFSGSGSGTDFTLTINSLEAEDAATYYCQQGHSFPLTFGGGTKVEIK gave Relative binding potency increase of 2.5

In plain terms, 1E11.C2E3 antibody (IgG1) (antibody, V domains shown) VH: QVQLQESGPGLVKPSDTLSLTCAVSGYPIRFGYSWHWIRQPPGKGLEWMGYIHYSGYTDFNPSLKTRITISRDTSKNQFSLKLSSVTAVDTAVYYCARKDSGNYFPYWGQGTLVTVSS VL: EIVLTQSPDFQSVTPKEKVTITCRASQSISDHLHWYQQKPDQSPKLLIKYASHAISGVPSRFSGSGSGTDFTLTINSLEAEDAATYYCQQGYDFPLTFGGGTKVEIK has a documented Relative binding potency increase of 39

The recorded Relative binding potency increase for 1E11.C2E5 antibody (IgG1) (antibody, V domains shown) VH: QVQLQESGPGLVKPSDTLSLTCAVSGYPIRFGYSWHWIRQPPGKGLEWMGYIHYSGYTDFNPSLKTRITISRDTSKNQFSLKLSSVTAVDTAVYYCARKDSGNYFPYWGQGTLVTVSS VL: EIVLTQSPDFQSVTPKEKVTITCRASQSISDHLHWYQQKPDQSPKLLIKYASHAISGVPSRFSGSGSGTDFTLTINSLEAEDAATYYCQQGYEFPLTFGGGTKVEIK is 36

Note to self: Relative binding potency increase recorded for 1E11.C2E1 antibody (IgG1) (antibody, V domains shown) VH: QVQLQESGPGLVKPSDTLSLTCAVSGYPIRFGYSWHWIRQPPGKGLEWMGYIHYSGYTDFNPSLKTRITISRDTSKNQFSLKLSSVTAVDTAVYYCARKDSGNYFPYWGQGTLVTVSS VL: EIVLTQSPDFQSVTPKEKVTITCRASQSISDHLHWYQQKPDQSPKLLIKYASHAISGVPSRFSGSGSGTDFTLTINSLEAEDAATYYCQQGNDFPVTFGGGTKVEIK was 29

// moving on: another record for Relative binding potency increase
Looking up 1E11.E5 antibody (IgG1) (antibody, V domains shown) VH: QVQLQESGPGLVKPSDTLSLTCAVSGYSITGGYSWHWIRQPPGKGLEWMGYIHYSGYTDFNPSLKTRITISRDTSKNQFSLKLSSVTAVDTAVYYCARKDSGNYFPYWGQGTLVTVSS VL: EIVLTQSPDFQSVTPKEKVTITCRASQSISDHLHWYQQKPDQSPKLLIKYASHAISGVPSRFSGSGSGTDFTLTINSLEAEDAATYYCQQGYEFPLTFGGGTKVEIK , I found its Relative binding potency increase recorded as 4
